test system: galium (catchweed bedstraw, Galium aparine); assay: Test A postemergence, galium; type: in vivo; settings: Postemergence, 500 g ai/ha; visual injury vs untreated controls after approx. 10 days; 0 to 100 scale (0 no effect, 100 complete control)
property: Galium plant response rating

INSERT INTO results (compound, experimentalvalue) VALUES
  ('Cc1cc(C)c(C(=O)N2CCC3(CCCC3)C2)cc1NS(=O)(=O)C(F)(F)F [Compound 225]', 80),
  ('Cc1cc(Cl)c(NS(=O)(=O)C(F)(F)F)cc1C1=NOC2(CCCC2)C1 [Compound 204]', 80),
  ('C#CCN(CC#C)C(=O)c1cc(NS(=O)(=O)C(F)(F)F)c(C)cc1C [Compound 187]', 80),
  ('COC1CCCN(C(=O)c2cc(N(S(=O)(=O)C(F)(F)F)S(=O)(=O)C(F)(F)F)c(C)cc2C)C1 (stereo not drawn) [Compound 119]', 90),
  ('Cc1cc(C)c(C2=NOC3(CCC4(CC3)OCCO4)C2)cc1NS(=O)(=O)C(F)(F)F [Compound 135]', 90),
  ('CCn1nc(Cl)cc(-c2cc(N(S(C)(=O)=O)S(=O)(=O)C(F)(F)F)c(C)cc2C)c1=O [Compound 45]', 40),
  ('Cc1cc(C)c(N(S(=O)(=O)C(F)(F)F)S(=O)(=O)C(F)(F)F)cc1C1=NOC2CCCC12 (stereo not drawn) [Compound 99]', 90),
  ('CC(=O)OCN(c1cc(C2=NO[C@@H]3CCC[C@H]23)c(C)cc1C)S(=O)(=O)C(F)(F)F (relative stereo) [Compound 102]', 100),
  ('Cc1cc(-c2cc(NS(=O)(=O)C(F)(F)F)c(C)cc2C)c(=O)n(C)n1 [Compound 62]', 80),
  ('Cc1cc(C)c(N(S(=O)(=O)C(F)(F)F)S(=O)(=O)C(F)(F)F)cc1C1=NOC2(CCOCC2)C1 [Compound 178]', 90),
  ('Cc1cc(C)c(C(=O)N2CCC(CC(F)(F)F)CC2)cc1NS(=O)(=O)C(F)(F)F [Compound 234]', 80),
  ('Cc1cc(-c2cc(N(S(=O)(=O)C(F)(F)F)S(=O)(=O)C(F)(F)F)c(C)cc2C)c(=O)n(C)n1 [Compound 75]', 90),
  ('Cc1cc(C)c(N(S(=O)(=O)C(F)(F)F)S(=O)(=O)C(F)(F)F)cc1C1=NOC(C(C)(C)C)C1 (stereo not drawn) [Compound 127]', 90),
  ('COC(=O)N(c1cc(-c2ccnn(C)c2=O)c(C)cc1C)S(=O)(=O)C(F)(F)F [Compound 53]', 80),
  ('Cc1cc(Cl)c(C2=NOC3(CCCC3)C2)cc1N(S(=O)(=O)C(F)(F)F)S(=O)(=O)C(F)(F)F [Compound 186]', 80),
  ('Cc1cc(C)c(C(=O)N2CCC3(CCCCC3)CC2)cc1NS(=O)(=O)C(F)(F)F [Compound 195]', 20),
  ('CCN(CC)C(=O)c1cc(NS(=O)(=O)C(F)(F)F)c(C)cc1C [Compound 188]', 50),
  ('CCn1nccc(-c2cc(NS(=O)(=O)C(F)(F)F)c(C)cc2F)c1=O [Compound 55]', 90),
  ('Cc1cc(C)c(C2=NOC3CCCC23)cc1NS(=O)(=O)C(F)(F)F (stereo not drawn) [Compound 164]', 90),
  ('Cc1cc(F)c(-c2ccnn(C)c2=O)cc1NS(=O)(=O)C(F)(F)F [Compound 63]', 90),
  ('Cc1c(NS(=O)(=O)C(F)(F)F)cc(C(=O)N2CC(C)OC(C)C2)c(C)c1F (stereo not drawn) [Compound 116]', 90),
  ('Cc1cc(C)c(C2=NOC3(CCOCC3)C2)cc1NS(=O)(=O)C(F)(F)F [Compound 177]', 90),
  ('Cc1cc(F)c(C(=O)N2CC(C)OC(C)C2)cc1N(S(=O)(=O)C(F)(F)F)S(=O)(=O)C(F)(F)F (stereo not drawn) [Compound 235]', 70),
  ('Cc1cc(C)c(C2=NOC3CCCCC23)cc1NS(=O)(=O)C(F)(F)F (stereo not drawn) [Compound 123]', 90),
  ('Cc1cc(F)c(C(=O)N2CCC(C#N)CC2)cc1NS(=O)(=O)C(F)(F)F [Compound 236]', 70),
  ('Cc1cc(C(F)(F)F)c(NS(=O)(=O)C(F)(F)F)cc1C(=O)N(C)C [Compound 132]', 90),
  ('COc1cc(-c2cc(NS(=O)(=O)C(F)(F)F)c(C)cc2C)c(=O)n(C)n1 [Compound 70]', 80);

====

Recorded Plant response rating, Foxtail, Giant values for a group of compounds are listed next.
test system: Foxtail, Giant (giant foxtail, Setaria faberi); assay: Test A preemergence, Foxtail, Giant; type: in vivo; settings: Preemergence, 500 g ai/ha; 0 to 100 scale (0 no effect, 100 complete control)
property: Plant response rating, Foxtail, Giant

INSERT INTO assay_data (compound, systemundertest, property, experimentalvalue) VALUES
  ('Cc1cc(C)c(N(S(=O)(=O)C(F)(F)F)S(=O)(=O)C(F)(F)F)cc1-c1ccnn(C)c1=O', 'Foxtail, Giant (giant foxtail, Setaria faberi)', 'Plant response rating, Foxtail, Giant', 100),
  ('Cc1cc(C)c(C2=NOC3(CCC(F)(F)CC3)C2)cc1NS(=O)(=O)C(F)(F)F', 'Foxtail, Giant (giant foxtail, Setaria faberi)', 'Plant response rating, Foxtail, Giant', 100),
  ('Cc1cc(C)c(C2=NOC3CCCC23)cc1NS(=O)(=O)C(F)(F)F (stereo not drawn)', 'Foxtail, Giant (giant foxtail, Setaria faberi)', 'Plant response rating, Foxtail, Giant', 100),
  ('C#CCN(C)C(=O)c1cc(NS(=O)(=O)C(F)(F)F)c(C)cc1C', 'Foxtail, Giant (giant foxtail, Setaria faberi)', 'Plant response rating, Foxtail, Giant', 100),
  ('Cc1cc(C)c(N(S(=O)(=O)C(F)(F)F)S(=O)(=O)C(F)(F)F)cc1C1=NOC2(CCC3(CC2)OCCO3)C1', 'Foxtail, Giant (giant foxtail, Setaria faberi)', 'Plant response rating, Foxtail, Giant', 100),
  ('CCn1cc(-c2cc(N(S(=O)(=O)C(F)(F)F)S(=O)(=O)C(F)(F)F)c(C)cc2C)c(=O)n(C)c1=O', 'Foxtail, Giant (giant foxtail, Setaria faberi)', 'Plant response rating, Foxtail, Giant', 100),
  ('Cc1cc(Cl)c(C2=NOC(C)(C)C2)cc1N(S(=O)(=O)C(F)(F)F)S(=O)(=O)C(F)(F)F', 'Foxtail, Giant (giant foxtail, Setaria faberi)', 'Plant response rating, Foxtail, Giant', 90),
  ('COC1(OC)CCN(C(=O)c2cc(NS(=O)(=O)C(F)(F)F)c(C)cc2C)CC1', 'Foxtail, Giant (giant foxtail, Setaria faberi)', 'Plant response rating, Foxtail, Giant', 100),
  ('Cc1ccc(-c2ccnn(C)c2=O)cc1NS(=O)(=O)C(F)(F)F', 'Foxtail, Giant (giant foxtail, Setaria faberi)', 'Plant response rating, Foxtail, Giant', 70),
  ('Cc1cc(Cl)c(NS(=O)(=O)C(F)(F)F)cc1-c1cn(C)c(=O)n(C)c1=O', 'Foxtail, Giant (giant foxtail, Setaria faberi)', 'Plant response rating, Foxtail, Giant', 100),
  ('Cc1ccc(=O)n(-c2cc(NS(=O)(=O)C(F)(F)F)c(C)cc2C)n1', 'Foxtail, Giant (giant foxtail, Setaria faberi)', 'Plant response rating, Foxtail, Giant', 90),
  ('Cc1cc(Cl)c(NS(=O)(=O)C(F)(F)F)cc1C(=O)N1CCC(C#N)CC1', 'Foxtail, Giant (giant foxtail, Setaria faberi)', 'Plant response rating, Foxtail, Giant', 100);

====

Recorded Plant response rating, Ryegrass, Italian values for a group of compounds are listed next.
system: Ryegrass, Italian (Italian ryegrass, Lolium multiflorum); test: Test A1 postemergence, Ryegrass, Italian; type: in vivo; conditions: Postemergence, 31 g ai/ha; 0 to 100 scale (0 no effect, 100 complete control); 10 days
property: Plant response rating, Ryegrass, Italian

INSERT INTO measurements (compound, property, experimentalvalue) VALUES
  ('CCOC1CC(c2cc(N(COC(=O)C(C)(C)C)S(=O)(=O)C(F)(F)F)c(C)cc2C)=NO1 (centres unmarked) [Compound 339]', 'Plant response rating, Ryegrass, Italian', 0),
  ('Cc1c(C(=O)N(C)C)cc(NS(=O)(=O)C(F)(F)F)c(Cl)c1F [Compound 320]', 'Plant response rating, Ryegrass, Italian', 0),
  ('Cc1cc(C)c(N(C(=O)OCC(C)C)S(=O)(=O)C(F)(F)F)cc1C1=NOC2CCCC12 (centres unmarked) [Compound 299]', 'Plant response rating, Ryegrass, Italian', 30),
  ('Cc1cc(C)c(N(S(=O)(=O)C(F)(F)F)S(=O)(=O)C(F)(F)F)cc1C1=NOC2COCC12 (centres unmarked) [Compound 296]', 'Plant response rating, Ryegrass, Italian', 0),
  ('Cc1cc(C2CC2)c(C2=NOC3CCCC23)cc1NS(=O)(=O)C(F)(F)F (centres unmarked) [Compound 307]', 'Plant response rating, Ryegrass, Italian', 20);

Where do these numbers come from? They come from patent US20230278972A1.
